Catalogue of IC50 readings, one per entry.
target: KRAS G12D (Homo sapiens, UniProt P01116, G12D); test: GDP-GTP exchange assay (bodipy-GDP/GppNHp, SOS1), KRAS G12D; details: bodipy-loaded KRAS G12D 2.5 nM, 4 hours pre-incubation with inhibitor, 2 hours after GppNHp/SOS1; read-out: G12D_exchange IC50
Sequence (P01116 1-188 isoform P01116-2 G12D): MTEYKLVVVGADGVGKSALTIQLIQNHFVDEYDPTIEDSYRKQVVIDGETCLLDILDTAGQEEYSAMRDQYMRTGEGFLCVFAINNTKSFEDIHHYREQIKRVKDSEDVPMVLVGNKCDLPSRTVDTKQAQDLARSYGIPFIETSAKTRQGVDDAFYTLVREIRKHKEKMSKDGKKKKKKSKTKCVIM
assay endpoint: IC50

>  <compound>
CNCCc1nc2c(N3CC(N(C)C)C3)nc3c(F)c(-c4cc(O)cc5ccccc45)c(Cc4ccc(C#N)cc4)cc3c2n1[C@@H]1[C@@H]2CN[C@H]1C2 (relative stereo)

>  <result>
100 to 1000 nM

$$$$
>  <compound>
CCn1ccc(-c2nc3c(N4CC(N(C)C)C4)nc4c(F)c(-c5cc(O)cc6ccccc56)c(CCC#N)cc4c3n2C2C3CNC2C3)n1 (single isomer, unassigned) [Example 35a]

>  <result>
≤ 100 nM

$$$$
>  <compound>
CC(=O)N1CC[C@H](n2c(=O)[nH]c3c(O[C@@H](C)[C@@H]4CCCN4C)nc4c(F)c(-c5cccc6cccc(C#N)c56)c(Cl)cc4c32)C[C@H]1CC#N

>  <result>
100 to 1000 nM

$$$$
>  <compound>
CCc1nc2c(-c3cc(C(=O)NC)ccc3F)nc3c(F)c(-c4cc(O)cc5ccccc45)c(CCC#N)cc3c2n1C1C2CNC1C2 (single isomer, unassigned) [Example 17a]

>  <result>
≤ 100 nM

$$$$

Measured values drawn from patent US12600717B2 for this set.
